- assay.remarks: Ligand charge of maytansinoid conjugates
- Type: physicochemical
test.readout: Ligand charge

>>> value_observed("COc1cc2cc(c1Cl)N(C)C(=O)C[C@H](OC(=O)[C@H](C)N(C)C(=O)CCC(C)(C)SSC[C@H](NC(=O)[C@@H]1CSSC[C@H](NC(=O)[C@@H](Cc3ccccc3)NC(=O)Nc3ccccc3)C(=O)N[C@@H](Cc3ccc(O)cc3)C(=O)N[C@H](Cc3c[nH]c4ccccc34)C(=O)N[C@@H](CCCCN)C(=O)N[C@@H]([C@@H](C)O)C(=O)N1)C(N)=O)[C@]1(C)O[C@H]1[C@H](C)[C@@H]1C[C@@](O)(NC(=O)O1)[C@H](OC)/C=C/C=C(\\C)C2 [Conjugate 5]")
"+1"
>>> value_observed("COc1cc2cc(c1Cl)N(C)C(=O)C[C@H](OC(=O)[C@H](C)N(C)C(=O)CCC(C)(C)SSC[C@H](NC(=O)[C@@H]1CSSC[C@H](NC(=O)[C@H](N)Cc3ccccc3)C(=O)N[C@@H](Cc3ccc(O)cc3)C(=O)N[C@H](Cc3c[nH]c4ccccc34)C(=O)N[C@@H](CCCCN)C(=O)N[C@@H]([C@@H](C)O)C(=O)N1)C(N)=O)[C@]1(C)O[C@H]1[C@H](C)[C@@H]1C[C@@](O)(NC(=O)O1)[C@H](OC)/C=C/C=C(\\C)C2 [Conjugate 4]")
"+2"
>>> value_observed("COc1cc2cc(c1Cl)N(C)C(=O)C[C@H](OC(=O)[C@H](C)N(C)C(=O)CCSSC(C)(C)[C@H](NC(=O)[C@@H]1CSSC[C@H](NC(=O)[C@H](N)Cc3ccccc3)C(=O)N[C@@H](Cc3ccc(O)cc3)C(=O)N[C@H](Cc3c[nH]c4ccccc34)C(=O)N[C@@H](CCCCN)C(=O)N[C@@H]([C@@H](C)O)C(=O)N1)C(N)=O)[C@]1(C)O[C@H]1[C@H](C)[C@@H]1C[C@@](O)(NC(=O)O1)[C@H](OC)/C=C/C=C(\\C)C2 [Conjugate 6]")
"+2"
>>> value_observed("CCNC(=O)N[C@H](Cc1ccccc1)C(=O)N[C@H]1CSSC[C@@H](C(=O)N[C@@H](CSSCCC(=O)N(C)[C@@H](C)C(=O)O[C@H]2CC(=O)N(C)c3cc(cc(OC)c3Cl)C/C(C)=C/C=C/[C@@H](OC)[C@@]3(O)C[C@H](OC(=O)N3)[C@@H](C)[C@@H]3O[C@@]23C)C(N)=O)NC(=O)[C@H]([C@@H](C)O)NC(=O)[C@H](CCCCN)NC(=O)[C@@H](Cc2c[nH]c3ccccc23)NC(=O)[C@H](Cc2ccc(O)cc2)NC1=O [Conjugate 39]")
"+1"
>>> value_observed("COc1cc2cc(c1Cl)N(C)C(=O)C[C@H](OC(=O)[C@H](C)N(C)C(=O)CCSSC(C)(C)[C@H](NC(=O)[C@@H]1CSSC[C@H](NC(=O)[C@@H](Cc3ccccc3)NS(C)(=O)=O)C(=O)N[C@@H](Cc3ccc(O)cc3)C(=O)N[C@H](Cc3c[nH]c4ccccc34)C(=O)N[C@@H](CCCCN)C(=O)N[C@@H]([C@@H](C)O)C(=O)N1)C(N)=O)[C@]1(C)O[C@H]1[C@H](C)[C@@H]1C[C@@](O)(NC(=O)O1)[C@H](OC)/C=C/C=C(\\C)C2 [Conjugate 10]")
"+1"

###

- assay.remarks: Ligand charge of maytansinoid conjugates
- Type: physicochemical
test.readout: Ligand charge

>>> value_observed("COc1cc2cc(c1Cl)N(C)C(=O)C[C@H](OC(=O)[C@H](C)N(C)C(=O)CCSSC[C@H](NC(C)=O)C(=O)NC[C@H](NC(=O)[C@@H]1CSSC[C@H](NC(=O)[C@H](N)Cc3ccccc3)C(=O)N[C@@H](Cc3ccc(O)cc3)C(=O)N[C@H](Cc3c[nH]c4ccccc34)C(=O)N[C@@H](CCCCN)C(=O)N[C@@H]([C@@H](C)O)C(=O)N1)C(N)=O)[C@]1(C)O[C@H]1[C@H](C)[C@@H]1C[C@@](O)(NC(=O)O1)[C@H](OC)/C=C/C=C(\\C)C2 [Conjugate 45]")
"+2"

###

- assay.remarks: Ligand charge of maytansinoid conjugates
- Type: physicochemical
test.readout: Ligand charge

>>> value_observed("COc1cc2cc(c1Cl)N(C)C(=O)C[C@H](OC(=O)[C@H](C)N(C)C(=O)CCSSC[C@H](NC(=O)[C@@H]1CSSC[C@H](NC(=O)[C@@H](Cc3ccccc3)NS(C)(=O)=O)C(=O)N[C@@H](Cc3ccc(O)cc3)C(=O)N[C@H](Cc3c[nH]c4ccccc34)C(=O)N[C@@H](CCCCN)C(=O)N[C@@H]([C@@H](C)O)C(=O)N1)C(N)=O)[C@]1(C)O[C@H]1[C@H](C)[C@@H]1C[C@@](O)(NC(=O)O1)[C@H](OC)/C=C/C=C(\\C)C2 [Conjugate 34]")
"+1"
>>> value_observed("COc1cc2cc(c1Cl)N(C)C(=O)C[C@H](OC(=O)[C@H](C)N(C)C(=O)CCSSCCC(=O)NC[C@H](NC(=O)[C@@H]1CSSC[C@H](NC(=O)[C@H](N)Cc3ccccc3)C(=O)N[C@@H](Cc3ccc(O)cc3)C(=O)N[C@H](Cc3c[nH]c4ccccc34)C(=O)N[C@@H](CCCCN)C(=O)N[C@@H]([C@@H](C)O)C(=O)N1)C(N)=O)[C@]1(C)O[C@H]1[C@H](C)[C@@H]1C[C@@](O)(NC(=O)O1)[C@H](OC)/C=C/C=C(\\C)C2 [Conjugate 44]")
"+2"

###

Parameter 'readout' = Ki; parameter 'system' = human SSTR2 (Homo sapiens, UniProt P30874).
Sequence (P30874 whole entry): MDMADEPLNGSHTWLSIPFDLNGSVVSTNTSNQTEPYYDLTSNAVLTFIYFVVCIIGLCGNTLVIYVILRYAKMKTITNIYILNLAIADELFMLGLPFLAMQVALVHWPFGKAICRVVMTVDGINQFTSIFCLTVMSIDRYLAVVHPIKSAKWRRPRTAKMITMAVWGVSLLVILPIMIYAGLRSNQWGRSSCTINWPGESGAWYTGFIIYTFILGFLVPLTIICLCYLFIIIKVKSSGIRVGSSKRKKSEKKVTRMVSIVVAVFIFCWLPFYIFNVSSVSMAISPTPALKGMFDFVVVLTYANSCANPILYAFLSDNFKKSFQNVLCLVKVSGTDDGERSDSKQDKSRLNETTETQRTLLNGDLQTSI
test.readout: Ki (nM)

>>> value_observed("COc1cc2cc(c1Cl)N(C)C(=O)C[C@H](OC(=O)[C@H](C)N(C)C(=O)CCSSCCC(=O)NC[C@H](NC(=O)[C@@H]1CSSC[C@H](NC(=O)[C@H](N)Cc3ccccc3)C(=O)N[C@@H](Cc3ccc(O)cc3)C(=O)N[C@H](Cc3c[nH]c4ccccc34)C(=O)N[C@@H](CCCCN)C(=O)N[C@@H]([C@@H](C)O)C(=O)N1)C(N)=O)[C@]1(C)O[C@H]1[C@H](C)[C@@H]1C[C@@](O)(NC(=O)O1)[C@H](OC)/C=C/C=C(\\C)C2 [Conjugate 44]")
0.022
>>> value_observed("COc1cc2cc(c1Cl)N(C)C(=O)C[C@H](OC(=O)[C@H](C)N(C)C(=O)CCSSC[C@H](NC(=O)[C@@H]1CSSC[C@H](NC(=O)[C@@H](Cc3ccccc3)NC(=O)Nc3ccccc3)C(=O)N[C@@H](Cc3ccc(O)cc3)C(=O)N[C@H](Cc3c[nH]c4ccccc34)C(=O)N[C@@H](CCCCN)C(=O)N[C@@H]([C@@H](C)O)C(=O)N1)C(N)=O)[C@]1(C)O[C@H]1[C@H](C)[C@@H]1C[C@@](O)(NC(=O)O1)[C@H](OC)/C=C/C=C(\\C)C2 [Conjugate 42]")
0.042

###

Recorded Ligand charge by entry
- assay.remarks: Ligand charge of maytansinoid conjugates
- Assay type: physicochemical
test.readout: Ligand charge

>>> value_observed("COc1cc2cc(c1Cl)N(C)C(=O)C[C@H](OC(=O)[C@H](C)N(C)C(=O)CCSSC(C)(C)[C@H](NC(=O)CC[C@H](NC(=O)[C@@H]1CSSC[C@H](NC(=O)[C@H](N)Cc3ccccc3)C(=O)N[C@@H](Cc3ccc(O)cc3)C(=O)N[C@H](Cc3c[nH]c4ccccc34)C(=O)N[C@@H](CCCCN)C(=O)N[C@@H]([C@@H](C)O)C(=O)N1)C(N)=O)C(N)=O)[C@]1(C)O[C@H]1[C@H](C)[C@@H]1C[C@@](O)(NC(=O)O1)[C@H](OC)/C=C/C=C(\\C)C2 [Conjugate 18]")
"+2"
>>> value_observed("COc1cc2cc(c1Cl)N(C)C(=O)C[C@H](OC(=O)[C@H](C)N(C)C(=O)CCSSC(C)(C)[C@@H](NC(=O)[C@@H]1CSSC[C@H](NC(=O)[C@H](N)Cc3ccccc3)C(=O)N[C@@H](Cc3ccc(O)cc3)C(=O)N[C@H](Cc3c[nH]c4ccccc34)C(=O)N[C@@H](CCCCN)C(=O)N[C@@H]([C@@H](C)O)C(=O)N1)C(N)=O)[C@]1(C)O[C@H]1[C@H](C)[C@@H]1C[C@@](O)(NC(=O)O1)[C@H](OC)/C=C/C=C(\\C)C2 [Conjugate 8]")
"+2"

###

- assay.remarks: Chrom LogP of maytansinoid conjugates
- Assay type: physicochemical
test.readout: chromatographic logP

>>> value_observed("COc1cc2cc(c1Cl)N(C)C(=O)C[C@H](OC(=O)[C@H](C)N(C)C(=O)CCSSC[C@H](NC(=O)[C@@H]1CSSC[C@H](NC(=O)[C@@H](Cc3ccccc3)NC(=O)NC3CCCCC3)C(=O)N[C@@H](Cc3ccc(O)cc3)C(=O)N[C@H](Cc3c[nH]c4ccccc34)C(=O)N[C@@H](CCCCN)C(=O)N[C@@H]([C@@H](C)O)C(=O)N1)C(N)=O)[C@]1(C)O[C@H]1[C@H](C)[C@@H]1C[C@@](O)(NC(=O)O1)[C@H](OC)/C=C/C=C(\\C)C2 [Conjugate 25]")
2.94
>>> value_observed("CCNC(=O)N[C@H](Cc1ccccc1)C(=O)N[C@H]1CSSC[C@@H](C(=O)N[C@@H](CSSCCC(=O)N(C)[C@@H](C)C(=O)O[C@H]2CC(=O)N(C)c3cc(cc(OC)c3Cl)C/C(C)=C/C=C/[C@@H](OC)[C@@]3(O)C[C@H](OC(=O)N3)[C@@H](C)[C@@H]3O[C@@]23C)C(=O)NCC)NC(=O)[C@H]([C@@H](C)O)NC(=O)[C@H](CCCCN)NC(=O)[C@@H](Cc2c[nH]c3ccccc23)NC(=O)[C@H](Cc2ccc(O)cc2)NC1=O [Conjugate 30]")
2.79

Reference source: patent US20190125888A1
